FYI, the data here is from ChEMBL document CHEMBL5108048.

test: […] in Sprague-Dawley rat […] assessed as half life at 0.5 mg/kg,iv; format: ADME, organism-based
# half-life >= 40 min gives Y, anything below gives N

(Q) Given CNC(=O)[C@]1(C)CC[C@@H](Nc2ncc3c(Br)nn(-c4ccc(-c5nnc(C)s5)cc4)c3n2)C1 , state whether its half-life is at least 40 min.
(A) Y

(Q) Given CNC(=O)[C@]1(C)CC[C@@H](Nc2ncc3c(Br)nn(-c4ccc(-c5nnc(C)s5)c(CCC#N)c4)c3n2)C1 , state whether its half-life is at least 40 min.
(A) N

(Q) Given CNC(=O)[C@]1(C)CC[C@@H](Nc2ncc3c(Br)nn(-c4ccc(-c5nnc(C)s5)c(C#N)c4)c3n2)C1 , state whether its half-life is at least 40 min.
(A) Y

(Q) Given CNC(=O)[C@]1(C)CC[C@@H](Nc2ncc3c(Br)nn(-c4ccc(-c5nnc(C)s5)c(CCO)c4)c3n2)C1 , state whether its half-life is at least 40 min.
(A) Y
